Data provenance: patent US9443060B2

- Tested on: hepatic glucose uptake (HGU)
- TEST: Glucose supply and insulin demand model: effect on hepatic glucose uptake
- Type: in vivo, human
- TEST_CONTEXT: adjustment factor = increase in hepatic glucose uptake at the therapeutic dose of Table 1; T2D
Some molecules, each annotated with its measured HGU uptake.
Quick one: just the number, no unit, thanks!

-- ask // fetch hepatic glucose uptake (HGU) HGU uptake for CC(=O)c1ccc(S(=O)(=O)NC(=O)NC2CCCCC2)cc1 [Acetohexamide]
-- reply 0.14

-- ask Repeat for the following molecule: `CN(C)C(=N)N=C(N)N`
-- reply 0.40

-- ask Same thing, different molecule: COc1ccc(Cl)cc1C(=O)NCCc1ccc(S(=O)(=O)NC(=O)NC2CCCCC2)cc1 [Glyburide]
-- reply 0.14

-- ask Now the molecule CCc1ccc(CCOc2ccc(CC3SC(=O)NC3=O)cc2)nc1 (stereo not shown)
-- reply 0.40

***
-- ask Checklist item: HGU uptake tested on hepatic glucose uptake (HGU), entry CCCCNC(=O)NS(=O)(=O)c1ccc(C)cc1 [Tolbutamide] , value?
-- reply 0.14

-- ask Another molecule to look at: CCCNC(=O)NS(=O)(=O)c1ccc(Cl)cc1 [Chlorpropamide]
-- reply 0.14

-- ask Proceed to Cc1c(C)c2c(c(C)c1O)CCC(C)(COc1ccc(CC3SC(=O)NC3=O)cc1)O2 (stereo not shown)
-- reply 0.40

-- ask Same for `OCCN1C[C@H](O)[C@@H](O)[C@H](O)[C@H]1CO`
-- reply 0.15

-- ask What would you report for CCC1=C(C)CN(C(=O)NCCc2ccc(S(=O)(=O)NC(=O)N[C@H]3CC[C@H](C)CC3)cc2)C1=O [Glimepiride] ?
-- reply 0.18

-- ask Next record, please: CCOc1cc(CC(=O)N[C@@H](CC(C)C)c2ccccc2N2CCCCC2)ccc1C(=O)O [Repaglinide]
-- reply 0.16

-- ask Likewise for CC(C)[C@H]1CC[C@H](C(=O)N[C@H](Cc2ccccc2)C(=O)O)CC1 [Nateglinide] ?
-- reply 0.21

-- ask Now give it for C[C@H]1O[C@H](O[C@H]2[C@H](O)[C@@H](O)[C@@H](O[C@H]3[C@H](O)[C@@H](O)C(O)O[C@@H]3CO)O[C@@H]2CO)[C@H](O)[C@@H](O)[C@@H]1N[C@H]1C=C(CO)[C@@H](O)[C@H](O)[C@H]1O (stereo partly shown) too.
-- reply 0.15

-- ask Check Cc1ccc(S(=O)(=O)NC(=O)NN2CCCCCC2)cc1 [Tolazamide] too.
-- reply 0.14

----------
- System: hepatic gluconeogenesis (GNG)
- TEST: Glucose supply and insulin demand model: effect on hepatic gluconeogenesis
- Format: in vivo, human
- TEST_CONTEXT: adjustment factor = decrease in hepatic gluconeogenesis at the therapeutic dose of Table 1; T2D
QUANTITY: GNG inhibition

-- ask Any idea what GNG inhibition was measured for COc1ccc(Cl)cc1C(=O)NCCc1ccc(S(=O)(=O)NC(=O)NC2CCCCC2)cc1 [Glyburide] ?
-- reply 0.07

-- ask And for CC(=O)c1ccc(S(=O)(=O)NC(=O)NC2CCCCC2)cc1 [Acetohexamide] ?
-- reply 0.07

-- ask Another: Cc1cnc(C(=O)NCCc2ccc(S(=O)(=O)NC(=O)NC3CCCCC3)cc2)cn1 [Glipizide]
-- reply 0.08

----------
// reported GNG inhibition per item
- System: hepatic gluconeogenesis (GNG)
- TEST: Glucose supply and insulin demand model: effect on hepatic gluconeogenesis
- Type: in vivo, human
- TEST_CONTEXT: adjustment factor = decrease in hepatic gluconeogenesis at the therapeutic dose of Table 1; T2D
Just the number, please.

Answered cases to consult:
-- ask Give the measured GNG inhibition of Cc1c(C)c2c(c(C)c1O)CCC(C)(COc1ccc(CC3SC(=O)NC3=O)cc1)O2 (stereo not drawn) [Troglitazone] .
-- reply 0.22

-- ask Continue with CC(C)[C@H]1CC[C@H](C(=O)N[C@H](Cc2ccccc2)C(=O)O)CC1 [Nateglinide]
-- reply 0.11

-- ask What about this compound? OCCN1C[C@H](O)[C@@H](O)[C@H](O)[C@H]1CO [Miglitol]
-- reply 0.05

-- ask Now try CCOc1cc(CC(=O)N[C@@H](CC(C)C)c2ccccc2N2CCCCC2)ccc1C(=O)O [Repaglinide] .
-- reply 0.07

Others:
-- ask Field request: GNG inhibition | item: Cc1ccc(S(=O)(=O)NC(=O)NN2CCCCCC2)cc1 [Tolazamide]
-- reply 0.07

-- ask Now consider CN(C)C(=N)N=C(N)N [Metformin] .
-- reply 0.35

-- ask // query: CCCNC(=O)NS(=O)(=O)c1ccc(Cl)cc1 [Chlorpropamide]
-- reply 0.07

-- ask Item: C[C@H]1O[C@H](O[C@H]2[C@H](O)[C@@H](O)[C@@H](O[C@H]3[C@H](O)[C@@H](O)C(O)O[C@@H]3CO)O[C@@H]2CO)[C@H](O)[C@@H](O)[C@@H]1N[C@H]1C=C(CO)[C@@H](O)[C@H](O)[C@H]1O (stereo partly drawn) [Acarbose]
-- reply 0.05

-- ask # repeat for CCc1ccc(CCOc2ccc(CC3SC(=O)NC3=O)cc2)nc1 (stereo not drawn) [Pioglitazone]
-- reply 0.21

-- ask Queued: CCC1=C(C)CN(C(=O)NCCc2ccc(S(=O)(=O)NC(=O)N[C@H]3CC[C@H](C)CC3)cc2)C1=O [Glimepiride]
-- reply 0.08

-- ask What do you get for CCCCNC(=O)NS(=O)(=O)c1ccc(C)cc1 [Tolbutamide] ?
-- reply 0.07

-- ask Ok, now CN(CCOc1ccc(CC2SC(=O)NC2=O)cc1)c1ccccn1 (stereo not drawn) [Rosiglitazone]
-- reply 0.23
